# Test system: VDR homodimer (NR concentration 270 nM)
# experimental_protocol: PBM binding z-score (relative to random genomic background probes); higher = stronger binding; sequences stand for … in GC…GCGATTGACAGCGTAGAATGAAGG
Rule: PBM binding z-score of 2 or more gives Fulfilled; anything lower gives Not fulfilled.

[
  {
    "monomer_sequence": "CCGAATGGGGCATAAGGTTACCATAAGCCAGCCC",
    "group": "Not fulfilled"
  },
  {
    "monomer_sequence": "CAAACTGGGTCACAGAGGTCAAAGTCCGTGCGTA",
    "group": "Fulfilled"
  },
  {
    "monomer_sequence": "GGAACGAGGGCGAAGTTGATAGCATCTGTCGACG",
    "group": "Not fulfilled"
  },
  {
    "monomer_sequence": "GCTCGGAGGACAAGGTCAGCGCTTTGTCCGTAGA",
    "group": "Not fulfilled"
  },
  {
    "monomer_sequence": "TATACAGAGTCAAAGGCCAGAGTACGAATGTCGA",
    "group": "Not fulfilled"
  }
]

query: Does the sequence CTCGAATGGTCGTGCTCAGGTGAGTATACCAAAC have recorded PBM binding z-score that is 2 or more?
result: Not fulfilled

query: Could you do the same for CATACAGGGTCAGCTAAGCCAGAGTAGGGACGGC , please?
result: Not fulfilled

query: Could you do the same for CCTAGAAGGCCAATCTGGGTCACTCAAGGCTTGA , please?
result: Not fulfilled

query: Could you do the same for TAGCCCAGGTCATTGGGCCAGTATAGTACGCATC , please?
result: Fulfilled

query: Could you do the same for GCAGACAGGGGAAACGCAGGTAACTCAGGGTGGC , please?
result: Not fulfilled

query: Could you do the same for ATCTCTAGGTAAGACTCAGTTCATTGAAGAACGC , please?
result: Fulfilled

query: Could you do the same for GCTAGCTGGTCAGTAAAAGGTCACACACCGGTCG , please?
result: Not fulfilled

query: Could you do the same for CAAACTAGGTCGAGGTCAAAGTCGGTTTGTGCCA , please?
result: Fulfilled

query: Could you do the same for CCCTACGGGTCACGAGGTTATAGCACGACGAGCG , please?
result: Not fulfilled

query: Could you do the same for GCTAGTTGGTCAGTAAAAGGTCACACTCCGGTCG , please?
result: Not fulfilled

query: Could you do the same for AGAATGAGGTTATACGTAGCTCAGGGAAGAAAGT , please?
result: Not fulfilled

query: Could you do the same for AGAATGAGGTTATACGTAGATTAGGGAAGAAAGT , please?
result: Not fulfilled

Data credit: the supplement of paper PMC6555819
